measured-endpoint: melting point

Illustrative cases are given below, each with its answer.
molecule	reported-value
CSc1ccccc1-c1ccc(C(=O)N2Cc3ccc(C(=O)NCc4cccnc4)n3Cc3ccccc32)cc1	172 to 175 °C
OC1CC=C(c2ccc(F)cc2)CC1 (stereo not given)	73 to 74.5 °C

Field melting point (entry `COC(=O)CCc1cccc(Cl)c1C(=O)CCCNC(C)=O` ) reads 51 to 52 °C

Field melting point (entry CC(NC(Nc1ccc2c(c1)OCO2)=C(C#N)S(=O)(=O)c1ccc(Cl)cc1)C(C)(C)C (stereo not given) ) reads 160 to 162 °C

Field melting point (entry O=C1OC(C2CCCCC2)(C2CCCCC2)C2CNCCN12 (stereo not given) ) reads 151 to 152 °C

----------
measured-endpoint: melting point

compound	reported-value
Cc1c(-c2ccc(O)cc2)sc(C#N)c1-c1ccc(O)cc1	282 to 284 °C
CCn1c(=O)c2c(nc(/C=C/c3ccc(OC)c(C)c3C)n2C)n(CC)c1=O	208 °C
Cc1cccc2c(Cc3nc4c(F)c(F)cc(F)c4s3)cn(CC(=O)O)c12	216 to 218 °C

Read the next record carefully.
Field melting point (entry CCC1N=C(c2ccccc2Cl)c2cc(CCC(=O)OC)sc2NC1=O (stereo not given) ) reads 187 to 189 °C

----------
measured-endpoint: melting point

Field melting point (entry `CCOC(=O)c1[nH]c2cc(Cl)cc(Cl)c2c1NCCC(=O)c1ccc(C(F)(F)F)cc1` ) reads 232 to 234 °C

Field melting point (entry `O=C(NCCO)/C(=C/c1ccc(OC(F)(F)F)cc1)NC(=O)c1ccc(OCCCC(F)(F)F)cc1` ) reads 160 to 163 °C

Field melting point (entry `N=C(NCCCOc1cccc2[nH]c3ccccc3c12)c1cccs1` ) reads 189 to 190 °C

Field melting point (entry `COc1cc(C)c(C(=O)c2c(Cl)cccc2Cl)cc1OC(C)(C)C` ) reads 102 °C

Field melting point (entry `Cc1nc2c(CO)cccn2c(=O)c1CCN1CCC(c2noc3cc(F)ccc23)CC1` ) reads 186 °C

Field melting point (entry `Cc1cccc(C)c1N(Cn1cnc(Cl)c1Cl)C(=O)CCl` ) reads 99 °C

----------
Reported melting point is given for each of the following molecules.

molecule	melting point
CC(=O)Nc1ccc(-c2nc(=O)c3ccccc3s2)cc1	231 to 232 °C
Nc1ccc(-c2cc(OCC(=O)N3CCOCC3)c3c(C(F)(F)F)cccc3n2)cc1	174 °C
COCC1CN(c2ccc(C3CCN(Cc4ccccc4)CC3)cc2)C(=O)O1 (racemic)	175 to 177 °C

Field melting point (entry `O=C(CCc1ccc2ccccc2n1)NO` ) reads 159 to 160 °C

Field melting point (entry `CCOC(=O)C(=O)Nc1cc(C)nc(N2CCc3ccccc3C2)c1` ) reads 128 to 129 °C

Field melting point (entry `O=C(Nc1ccc(-n2nc(C(F)(F)F)cc2C(F)(F)F)cc1)c1ccc(Cl)cc1F` ) reads 156 to 158 °C

Field melting point (entry Cc1cn(C(C)(C(=O)N(C)C)c2ccccc2)nc1-c1ccccc1 (stereo not given) ) reads 107 to 109 °C

Field melting point (entry `COC(=O)[C@H](CS)NC(=O)[C@@H](O)CO` ) reads 90 to 92 °C

Field melting point (entry `CCSc1ccc(NC(=S)NC(=O)OC)c(N)c1` ) reads 168 °C

Field melting point (entry `Oc1ccc(O)c(-c2ccc(Cl)cc2Cl)c1` ) reads 82 to 86 °C

----------
measured-endpoint: melting point

Illustrative cases are given below, each with its answer.
molecule	reported-value
C=Cc1c(C)c2c(c(O)c1C/C=C1\CCCC1CC(=O)O)C(=O)OC2 (stereo not given)	141 to 142 °C
CCOC(=O)c1cnn(Cc2ccccc2)c1NC(=O)Nc1ccccc1	178 to 179 °C
CCOC(=O)c1c(CCl)nc2sc3c(c2c1-c1ccc(OC)c(OC)c1)CN(C(=O)OCc1ccccc1)CC3	125 to 126 °C
CC(C)N(Cc1cccs1)S(=O)(=O)N[C@@H](Cc1ccc(NC(=O)c2cc(Cl)cc(Cl)c2)cc1)C(=O)O	122 °C
CCCCn1c(=O)n(CCC)c(=O)c2c3n(nc21)CCCN3C	94 to 98 °C

Field melting point (entry `c1cc2sccc2cn1` ) reads < 50 °C

Field melting point (entry `COc1ccc(C(=C/C=C/C(=O)NCCCCCc2ccccn2)c2ccc(OC)cc2)cc1` ) reads 99 to 100 °C

----------
measured-endpoint: melting point

Illustrative cases are given below, each with its answer.
molecule	melting point
COC(=O)C(=O)c1oc2cccc(OCc3ccc(F)cc3)c2c1O	138 to 141 °C
CCOC(=O)ON=C(N)c1cccc(Oc2ccc3c(c2)S(=O)(=O)N=C2CCCN23)c1	101 to 105 °C
CCOC(=O)c1c(C(=O)OCC)c(-c2ccc3c(c2)OCO3)c2c3c(ccc2c1O)OCO3	192 to 194 °C
COc1c(Br)c(-c2csc(C(C)C)n2)cc2oc(=O)c(Cl)c(C)c12	186 °C
ClC(=NNc1ccccc1)c1ccc(Cl)c(Cl)c1	121 to 124 °C
CCCCc1ncc(CC(Cc2ccccc2)C(=O)OC)n1Cc1ccccc1Cl (centres undefined)	118 to 120 °C

Field melting point (entry `O=C(C[C@@H](O)C(F)(F)F)N[C@H]1CC[C@H](CCN2CCC(c3cccc4c3CCO4)CC2)CC1` ) reads 189 °C

Field melting point (entry CN1CCC23c4cccc(O)c4OC2C2CCC3(CC2)C1 (centres undefined) ) reads 174 to 176 °C

Field melting point (entry O=S(=O)(NCCN1CC(c2ccccc2)C(c2ccc(Cl)cc2)=N1)c1cccc(C(F)(F)F)c1 (centres undefined) ) reads 94 to 96 °C

----------
Reported melting point is given for each of the following compounds.

Illustrative cases are given below, each with its answer.
compound	melting point
O=C(O)CC1(C(=O)O)CCc2cc3ccccc3n2C1 (stereo not given)	185 to 188 °C
O=[N+]([O-])c1ccc2c(c1)OC(COc1nccnc1N1CCNCC1)CO2 (stereo not given)	133 to 135 °C

Field melting point (entry `CC(C)(C)OC(=O)NC1CCN(c2ccc(C(N)=O)cc2)CC1` ) reads > 270 °C

Field melting point (entry `O=C(O)c1ccc2c(c1)C=CC(=CCl)CO2` ) reads > 260 °C

Field melting point (entry `O=C(O)c1ccc(-c2ccc(O)c(F)c2)cc1` ) reads 254 to 256 °C

Field melting point (entry `O=C(NCc1ccc(Cl)cc1)c1cn(C2CC2)c2oc(CCl)cc2c1=O` ) reads 174 to 176 °C

Field melting point (entry `COC(=O)[C@H](/C=C/[C@H](Cc1ccccc1)NC(=O)OC(C)(C)C)Cc1ccccc1` ) reads 84 to 85 °C

Field melting point (entry `CSc1ccc(C=CC(=O)c2cccc([N+](=O)[O-])c2)cc1` ) reads 150 °C

Field melting point (entry COC(=O)C1CN(C(=O)C2=Cc3cc(OC)c(OC)cc3CCC2)CCN1 (stereo not given) ) reads 103 to 104 °C

Field melting point (entry Cc1noc(C)c1C(C)(O)c1ccoc1 (stereo not given) ) reads 88 to 90 °C

----------
measured-endpoint: melting point

Illustrative cases are given below, each with its answer.
molecule	melting point
O=C1C=CC=C2C=CC=C12	70 to 71 °C
CCOc1c(NCCP(=O)(OCC)OCC)c(=O)c1=O	66 to 68 °C
CC1(C)CCc2c(N3CCSCC3)nc3sc4c(NCc5ccncc5)ncnc4c3c2C1	237 °C
O=C(O)CCc1ccc(OCC2CCN(c3ccncc3)CC2)cc1	303 to 307 °C

Field melting point (entry `CC1=Cc2cc(F)c(F)cc2C1` ) reads 86 to 90 °C

Field melting point (entry COC1=NC(c2cccc([N+](=O)[O-])c2)C(C(=O)OC(C)C)=C(C)N1 (stereo unspecified) ) reads 130 to 132 °C

----------
measured-endpoint: melting point

Illustrative cases are given below, each with its answer.
compound	melting point
O=C(c1nc2ccccc2s1)C1CCN(CCc2ccccc2)CC1	108 to 110 °C
COC(=O)C(Cc1c[nH]c2ccccc12)NC1CCC(c2ccccc2)(N(C)C)CC1 (centres undefined)	60 to 65 °C
COc1cc2c(c3c1OC(C)(C)C3)C(c1ccnc(-n3c(=O)cc(C)c4ccccc43)c1)=NC(C)(C)C2	218 to 219 °C
Cn1c(=O)c2c(-c3ccccc3)n(-c3ccccc3N)cc2n(C)c1=O	> 300 °C
CC(C)(C)c1ccc(S(=O)(=O)N(Cc2cc(C(C)(C)C)c(O)c(C(C)(C)C)c2)c2cccnc2)cc1	155 to 156 °C
Nc1c(F)c(F)c(F)c(F)c1S(=O)(=O)O	272 to 276 °C
CC(C)(C)OC(=O)/C(=C/c1ccccc1)C(=O)c1cc2ccccc2cc1O	132 to 135 °C
CC(=O)C1=CCC2C3CCC4CC5OC5CC4(C)C3C(=O)CC12C (centres undefined)	154 to 156 °C

Read the next record carefully.
Field melting point (entry CN(C(CCn1c(=O)[nH]c2ccsc2c1=O)C(=O)NO)S(=O)(=O)c1ccc(Oc2cccc(Cl)c2)cc1 (centres undefined) ) reads 192 to 194 °C

Sourced from a melting point compilation (Tetko et al.; mined from patent text by program, amines drawn as free bases though some values may be those of a salt)
